# assay details: APR_HepG2_p53Act_24hr: Apredica 24-hour HepG2 Assay for p53 Activation (AID 2282913);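 also: p53 protein immunofluorescence averaged per cell in HepG2 with Hoechst nuclei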
# study conditions: high-content imaging, actives raise or lower the signal
The source made the active and inactive calls. The calls were made as follows: active = hit-call score of the fitted dose curve at least 0.9, where 1 is the maximum; inactive = score below 0.9.
Tick one outcome: y = active, n = inactive

Reference set (2 entries):
O=C(O)Cc1cc(I)c(Oc2ccc(O)c(I)c2)c(I)c1: n
Clc1cc(Cl)c2c(c1)N=C1CCCCCN1C2: n

Ask: Can you look up the reported call for CC(C)(c1cc(Br)c(O)c(Br)c1)c1cc(Br)c(O)c(Br)c1 for me?
Reply: n

Ask: Consider next the compound CC(O)CC(C)(C)O (stereo not drawn) in the same way.
Reply: n

Ask: Consider next the compound CN1C(=O)N(c2ccccc2Br)Cc2cnc(Nc3ccc4c(c3)OCC(CO)O4)nc21 (stereo not drawn) in the same way.
Reply: y

* * *

# Read-out: Nuclear factor NF-kappa-B p105 subunit (Homo sapiens) (UniProt P19838)
# Sequence (P19838 whole entry, looked up): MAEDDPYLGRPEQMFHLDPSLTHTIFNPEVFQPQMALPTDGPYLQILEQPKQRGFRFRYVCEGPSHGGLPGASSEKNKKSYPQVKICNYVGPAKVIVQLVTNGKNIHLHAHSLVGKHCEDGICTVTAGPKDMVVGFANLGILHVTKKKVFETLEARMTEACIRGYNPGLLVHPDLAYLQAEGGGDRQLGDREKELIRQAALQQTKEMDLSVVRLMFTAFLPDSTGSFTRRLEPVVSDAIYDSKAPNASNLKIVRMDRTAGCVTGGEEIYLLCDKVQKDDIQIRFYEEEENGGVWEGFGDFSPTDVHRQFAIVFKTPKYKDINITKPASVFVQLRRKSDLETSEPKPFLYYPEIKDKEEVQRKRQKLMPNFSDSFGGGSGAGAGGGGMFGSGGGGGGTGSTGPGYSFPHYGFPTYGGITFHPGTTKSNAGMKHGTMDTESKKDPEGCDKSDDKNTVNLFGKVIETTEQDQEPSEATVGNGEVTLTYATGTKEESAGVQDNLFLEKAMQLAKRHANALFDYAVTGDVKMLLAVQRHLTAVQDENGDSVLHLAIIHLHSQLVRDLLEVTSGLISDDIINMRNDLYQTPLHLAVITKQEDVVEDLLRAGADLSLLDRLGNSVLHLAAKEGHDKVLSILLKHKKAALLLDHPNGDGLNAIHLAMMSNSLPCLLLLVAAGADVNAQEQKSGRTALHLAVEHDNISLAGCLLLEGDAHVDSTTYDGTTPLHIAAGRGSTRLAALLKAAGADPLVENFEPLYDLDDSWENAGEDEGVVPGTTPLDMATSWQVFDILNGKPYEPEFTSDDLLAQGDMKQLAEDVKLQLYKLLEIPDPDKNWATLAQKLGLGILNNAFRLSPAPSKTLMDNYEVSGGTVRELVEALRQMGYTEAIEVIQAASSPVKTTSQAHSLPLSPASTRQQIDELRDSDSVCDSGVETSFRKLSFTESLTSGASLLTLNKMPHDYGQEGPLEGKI
# assay details: LTEA_HepaRG_NFKB1: Life Technologies and Expression Analysis (LTEA) Assay for Nuclear Factor Kappa B Subunit 1 (NFKB1) using HepaRG (AID 2283521)
# study conditions: mRNA level, 48 h; actives raise or lower the signal
Active and inactive are the calls of the source. How the source made its calls: active means hit-call score of the fitted dose curve at least 0.9, where 1 is the maximum; inactive means score below 0.9.
measure: AC50

Sample answers from the record:
Cc1c2ccccc2c(C)c2c1ccc1ccccc12: inactive
CC(O)CC(C)(C)O (stereo unspecified): inactive
Cc1occc1C(=O)Nc1ccc(C(=O)N2CCC(F)(F)/C(=C\C(=O)N3CCC(N4CCCCC4)CC3)c3ccccc32)cc1: inactive
O=c1[nH]sc2ccccc12: inactive
Oc1ccc2ccccc2c1: inactive
CCN(CC)C(=O)c1cc(S(=O)(=O)Cc2ccccc2)c(N2CCC(c3ccccc3)CC2)cc1N(CC)CCN(C)C: 28.1 µM (active)

Dear colleague, could you send me AC50 for each of the items below? Thanks.
1. Cc1cc2c(cc1C(F)(F)F)N(C(=O)Nc1ccc(Oc3cccnc3C)nc1)CC2
2. COc1cc(C(=O)NC2CCN(C)CC2)ccc1Nc1ncc2c(n1)N(C1CCCC1)CC(F)(F)C(=O)N2C
3. Cc1cccc2ccccc12
4. CCCCCCCCCCCO
5. CC[C@@H]1C[C@H](N(Cc2cc(C(F)(F)F)cc(C(F)(F)F)c2)C(C)=O)c2cc(C(F)(F)F)ccc2N1C(=O)OC(C)C

Reply:
1: inactive; 2: 11.7 µM (active); 3: inactive; 4: inactive; 5: inactive

* * *

# Read-out: CYP2C8 (gene 1558)
# assay details: LTEA_HepaRG_CYP2C8: Life Technologies and Expression Analysis (LTEA) Assay for CYP2C8 using HepaRG (AID 2283483)
# study conditions: mRNA level, 48 h; actives raise or lower the signal
Activity calls are given as the source filed them. Rule for the calls: active = hit-call score of the fitted dose curve at least 0.9, where 1 is the maximum; inactive = score below 0.9.
Tick one outcome: Y = active, N = inactive

Reference set (5 entries):
COc1ccc2cc(S(=O)(=O)N[C@H](CC(=O)N[C@H](Cc3ccc(CN4[C@H](C)CCC[C@@H]4C)cc3)C(=O)N(C)C(C)C)c3ccc4c(c3)OCO4)ccc2c1: N
CC(O)CC(C)(C)O (stereo unspecified): N
c1ccc(C[n+]2cccc3ccccc32)cc1: Y
CC[C@@H]1C[C@H](N(Cc2cc(C(F)(F)F)cc(C(F)(F)F)c2)C(C)=O)c2cc(C(F)(F)F)ccc2N1C(=O)OC(C)C: Y
CC1(C)NC(=O)N(c2ccc([N+](=O)[O-])c(C(F)(F)F)c2)C1=O: Y

Ask: Can you look up the reported call for O=CCCCC=O for me?
Reply: N

Ask: Consider next the compound CN1C(=O)N(c2ccccc2Br)Cc2cnc(Nc3ccc4c(c3)OCC(CO)O4)nc21 (stereo unspecified) in the same way.
Reply: N

Ask: Consider next the compound CCCCOC(=O)CC(CC(=O)OCCCC)(OC(C)=O)C(=O)OCCCC in the same way.
Reply: N

Ask: Consider next the compound O=C(O)Cn1c(=O)n(Cc2ccc(Br)cc2F)c(=O)c2ccc(Cl)cc21 in the same way.
Reply: Y

Ask: Consider next the compound COc1cc(C(=O)NC2CCN(C)CC2)ccc1Nc1ncc2c(n1)N(C1CCCC1)CC(F)(F)C(=O)N2C in the same way.
Reply: N

Ask: Consider next the compound CCCCCc1ccc(N)cc1 in the same way.
Reply: Y

Ask: Consider next the compound CN1C(=O)CC[C@H]1c1cccnc1 in the same way.
Reply: N

Ask: Consider next the compound O=c1c(-c2ccc(O)cc2)coc2cc(O)cc(O)c12 in the same way.
Reply: N

Ask: Consider next the compound CC(C)(C)c1csc(-c2cc3cc(OCc4ccccc4CC(=O)O)ccc3o2)n1 in the same way.
Reply: Y

Ask: Consider next the compound Cc1ccc(C(C)C)cc1 in the same way.
Reply: N

Ask: Consider next the compound CCCCCCCCCCCC[N+](C)(C)C in the same way.
Reply: Y

* * *

# Read-out: Interferon-gamma inducible Protein 10 (IP10), CXCL10 (gene 3627)
# assay details: BSK_hDFCGF_IP10: BioMAP Diversity Plus: hDFCGF Assay for Interferon-gamma inducible Protein 10 (IP10) Biomarker Activity (AID 2283053)
# study conditions: primary human foreskin fibroblasts; actives raise or lower the signal
Active and inactive are the calls of the source. How the source made its calls: active means hit-call score of the fitted dose curve at least 0.9, where 1 is the maximum; inactive means score below 0.9.
Tick one outcome: True = active, False = inactive

Reference set (6 entries):
CO[C@H]1/C=C/O[C@@]2(C)Oc3c(C)c(O)c4c(O)c(c(/C=N/N5CCN(C)CC5)c(O)c4c3C2=O)NC(=O)/C(C)=C\C=C\[C@H](C)[C@H](O)[C@@H](C)[C@@H](O)[C@@H](C)[C@H](OC(C)=O)[C@@H]1C: False
O=C1O[C@H]([C@@H](O)CO)C(O)=C1O: False
Cc1cccc2ccccc12: False
Cc1cc2c(cc1C(F)(F)F)N(C(=O)Nc1ccc(Oc3cccnc3C)nc1)CC2: True
CCN(Cc1cccnc1)C(=O)c1cccc(Cl)c1[C@]1(C)C(=O)N(Cc2ccc(OC)cc2OC)c2ccc(Cl)cc21: True
Oc1ccc2ccccc2c1: False

Ask: Can you look up the reported call for O=C(O)c1ccccc1-n1cc(C(=O)O)c(=O)c2cc(Nc3c(F)cc(F)cc3Cl)c(Cl)cc21 for me?
Reply: False

Ask: Consider next the compound C[C@]12CC[C@@H]3c4ccc(O)cc4CC[C@H]3[C@@H]1CCC2=O in the same way.
Reply: False

* * *

# assay details: CCTE_Padilla_ZF_144hpf_TERATOSCORE: (Legacy) CCTE's 144 Hour Post-fertilization zebrafish Assay Teratoscore, Padilla Lab (AID 2283679)
The source made the active and inactive calls. Rule for the calls: active = hit-call score of the fitted dose curve at least 0.9, where 1 is the maximum; inactive = score below 0.9.
Tick one outcome: active, inactive

Ask: Can you look up the reported call for CCN(CC)C(=O)c1cc(S(=O)(=O)Cc2ccccc2)c(N2CCC(c3ccccc3)CC2)cc1N(CC)CCN(C)C for me?
Reply: active

Ask: Consider next the molecule C[C@]12CC[C@@H]3c4ccc(O)cc4CC[C@H]3[C@@H]1CCC2=O in the same way.
Reply: inactive

Ask: Consider next the molecule Cc1c2ccccc2c(C)c2c1ccc1ccccc12 in the same way.
Reply: active

* * *

# assay details: BSK_LPS_PGE2: BioMAP Diversity Plus: LPS Assay for Prostaglandin E2 (PGE2) Biomarker Activity (AID 2283082);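 as to AC50: secreted prostaglandin E2 measured by ELISA in LPS-stimulated co-culture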
# study conditions: primary human HUVEC with PBMC; actives raise or lower the signal
Activity calls are given as the source filed them. Rule for the calls: active = hit-call score of the fitted dose curve at least 0.9, where 1 is the maximum; inactive = score below 0.9.
measure: AC50

Sample answers from the record:
CCCCOC(=O)CC(CC(=O)OCCCC)(OC(C)=O)C(=O)OCCCC: inactive
O=C1CCC(C2CCCCC2)CC1: inactive
CC(=O)N1CCN(c2ccc(OC[C@H]3CO[C@](Cn4ccnc4)(c4ccc(Cl)cc4Cl)O3)cc2)CC1: inactive
CC(O)CC(C)(C)O (stereo not drawn): inactive

Dear colleague, could you send me AC50 for each of the items below? Thanks.
1. Cc1oc2c(NC(=O)c3c(Cl)cccc3Cl)cccc2c1C(C)(C)O
2. COc1cc(C(=O)NC2CCN(C)CC2)ccc1Nc1ncc2c(n1)N(C1CCCC1)CC(F)(F)C(=O)N2C

Reply:
21.1 µM (active)
5.48 µM (active)

Dear colleague, could you send me AC50 for each of the items below? Thanks.
1. OCCO
2. CC(C)(C)c1csc(-c2cc3cc(OCc4ccccc4CC(=O)O)ccc3o2)n1

Reply:
1. inactive
2. inactive

* * *

# Read-out: Apoptosis regulator Bcl-2 (Homo sapiens)
# assay details: LTEA_HepaRG_BCL2: Life Technologies and Expression Analysis (LTEA) Assay for Bcl-2 gene using HepaRG (AID 2283475);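 also: BCL2 transcript by TaqMan qRT-PCR normalised to ACTB GAPDH and POLR2A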
# study conditions: mRNA level, 48 h; actives raise or lower the signal
# Description: LTEA_HepaRG is a cell based, multiplexed-readout assay that uses HepaRG, a human liver cell line, with measurements taken at 48 hours after chemical dosing on a 96-well plate.LTEA_HepaRG_BCL2 is one of 102 assay component(s) measured in the LTEA HepaRG cell culture assay. It is a marker of Cell proliferation, survival, death.Data from the assay component LTEA_HepaRG_BCL2 was analyzed into 1 endpoint. […]
Activity calls are given as the source filed them. The calls were made as follows: active = hit-call score of the fitted dose curve at least 0.9, where 1 is the maximum; inactive = score below 0.9.
Tick one outcome: y (active), n (inactive)

Reference set (5 entries):
NC(=O)c1nc(-c2cccc(-c3cc(F)ccc3OCC(F)(F)C(F)(F)F)c2)n[nH]1: n
CCCCCCCCN(C)CCCCCCCC: n
Cc1occc1C(=O)Nc1ccc(C(=O)N2CCC(F)(F)/C(=C\C(=O)N3CCC(N4CCCCC4)CC3)c3ccccc32)cc1: n
O=c1ccc2ccccc2o1: n
CC1=CC(=O)/C(=C(/C)O)C(=O)O1: n

Ask: Can you look up the reported call for O=c1[nH]sc2ccccc12 for me?
Reply: n

Ask: Consider next the compound OCCO in the same way.
Reply: n

Ask: Consider next the compound O=C(O)c1ccccc1-n1cc(C(=O)O)c(=O)c2cc(Nc3c(F)cc(F)cc3Cl)c(Cl)cc21 in the same way.
Reply: n

Ask: Consider next the compound O=C(OCCCCCCOC(=O)c1ccccc1)c1ccccc1 in the same way.
Reply: n
